Documented IC50 across a set of molecules
Molecular target: ALK tyrosine kinase receptor (Homo sapiens, UniProt Q9UM73, L1196M)
Sequence (Q9UM73 19-1620 L1196M limits assumed): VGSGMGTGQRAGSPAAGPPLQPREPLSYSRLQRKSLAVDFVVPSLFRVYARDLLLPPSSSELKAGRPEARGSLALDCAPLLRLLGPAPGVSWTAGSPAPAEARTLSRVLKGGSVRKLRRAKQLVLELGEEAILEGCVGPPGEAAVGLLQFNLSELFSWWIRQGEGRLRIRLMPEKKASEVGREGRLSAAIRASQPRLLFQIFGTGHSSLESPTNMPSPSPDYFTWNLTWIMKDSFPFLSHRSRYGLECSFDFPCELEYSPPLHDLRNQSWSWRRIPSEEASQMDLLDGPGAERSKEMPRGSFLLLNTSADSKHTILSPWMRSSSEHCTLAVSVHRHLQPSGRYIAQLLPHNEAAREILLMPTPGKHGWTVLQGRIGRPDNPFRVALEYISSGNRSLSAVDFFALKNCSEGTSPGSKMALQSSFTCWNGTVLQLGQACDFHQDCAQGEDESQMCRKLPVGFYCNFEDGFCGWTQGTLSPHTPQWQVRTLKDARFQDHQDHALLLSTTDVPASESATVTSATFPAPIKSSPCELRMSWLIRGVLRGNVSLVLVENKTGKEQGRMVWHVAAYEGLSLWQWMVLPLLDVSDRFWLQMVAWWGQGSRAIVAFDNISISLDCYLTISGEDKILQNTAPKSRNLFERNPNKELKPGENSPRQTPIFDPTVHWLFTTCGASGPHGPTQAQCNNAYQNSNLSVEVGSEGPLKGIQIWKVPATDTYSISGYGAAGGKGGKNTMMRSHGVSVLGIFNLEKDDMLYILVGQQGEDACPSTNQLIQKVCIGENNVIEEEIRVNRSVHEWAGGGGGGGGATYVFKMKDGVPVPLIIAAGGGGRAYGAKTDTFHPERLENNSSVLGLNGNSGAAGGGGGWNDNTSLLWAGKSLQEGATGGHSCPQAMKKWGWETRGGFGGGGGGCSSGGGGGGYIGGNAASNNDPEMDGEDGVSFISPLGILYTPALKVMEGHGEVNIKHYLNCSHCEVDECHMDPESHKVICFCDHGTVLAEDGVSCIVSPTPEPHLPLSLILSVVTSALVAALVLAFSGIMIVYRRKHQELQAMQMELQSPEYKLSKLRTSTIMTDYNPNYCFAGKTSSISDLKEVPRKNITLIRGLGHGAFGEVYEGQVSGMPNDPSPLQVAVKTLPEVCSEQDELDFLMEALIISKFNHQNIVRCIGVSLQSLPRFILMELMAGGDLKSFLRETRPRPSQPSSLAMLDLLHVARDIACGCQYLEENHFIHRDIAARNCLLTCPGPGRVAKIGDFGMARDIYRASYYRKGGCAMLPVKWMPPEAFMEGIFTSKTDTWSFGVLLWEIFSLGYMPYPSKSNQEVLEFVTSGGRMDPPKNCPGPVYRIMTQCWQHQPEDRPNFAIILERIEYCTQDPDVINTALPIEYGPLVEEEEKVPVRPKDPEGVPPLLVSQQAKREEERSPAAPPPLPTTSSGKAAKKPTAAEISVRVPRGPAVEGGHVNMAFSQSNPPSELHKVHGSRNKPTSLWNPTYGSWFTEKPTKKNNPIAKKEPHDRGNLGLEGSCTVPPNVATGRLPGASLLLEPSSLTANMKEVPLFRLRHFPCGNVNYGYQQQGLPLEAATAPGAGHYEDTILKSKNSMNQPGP
Experiment: Inhibition of ALK L1196M mutant (unknown origin)

query_smiles	IC50
[2H]C([2H])([2H])C([2H])([2H])Oc1cc(C2CCNCC2)c(C)cc1Nc1ncc(Cl)c(Nc2ccccc2S(=O)(=O)C(C)C)n1	37 nM
[2H]C([2H])([2H])Oc1cc(C2CCNCC2)c(C)cc1Nc1ncc(Cl)c(Nc2ccccc2S(=O)(=O)C(C)C)n1	18.7 nM

====

Assay: AUC (0 to t) in SCID Beige nude mouse xenografted with human NCI-H2228 cells harboring EML4-fused ALK variant at 3 to 30 mg/kg, po administered once daily for 14 days
Assay type: ADME, organism-based
Conditions: in vivo, 336 h
readout_label: AUCt (ng·h/mL)

query_smiles	observed_value
[2H]C([2H])([2H])Oc1cc(C2CCNCC2)c(C)cc1Nc1ncc(Cl)c(Nc2ccccc2S(=O)(=O)C(C)C)n1	6980

====

Test: Cmax in SCID Beige nude mouse xenografted with human NCI-H2228 cells harboring EML4-fused ALK variant at 3 to 30 mg/kg, po administered once daily for 14 days
Format: ADME, organism-based
Settings: in vivo
readout_label: Cmax (ng/mL)

query_smiles	observed_value
[2H]C([2H])([2H])Oc1cc(C2CCNCC2)c(C)cc1Nc1ncc(Cl)c(Nc2ccccc2S(=O)(=O)C(C)C)n1	508

====

Documented pIC50 across a set of molecules
Molecular target: ALK tyrosine kinase receptor (Homo sapiens, UniProt Q9UM73, F1174L)
Sequence (Q9UM73 19-1620 F1174L limits assumed): as the sequence (Q9UM73 19-1620 L1196M limits assumed) above, with F1156L, M1178L counted along it
Assay: Inhibition of ALK F1174L mutant (unknown origin)
pIC50: −log10 of the molar value.

query_smiles	pIC50
[2H]C([2H])([2H])C([2H])([2H])Oc1cc(C2CCNCC2)c(C)cc1Nc1ncc(Cl)c(Nc2ccccc2S(=O)(=O)C(C)C)n1	7.29
[2H]C([2H])([2H])Oc1cc(C2CCNCC2)c(C)cc1Nc1ncc(Cl)c(Nc2ccccc2S(=O)(=O)C(C)C)n1	7.43

====

Assay: Oral bioavailability in SCID Beige nude mouse xenografted with human NCI-H2228 cells harboring EML4-fused ALK variant at 3 to 30 mg/kg administered once daily for 14 days relative to control
Assay type: ADME, organism-based
Conditions: in vivo
readout_label: bioavailability (%)

query_smiles	unit_symbol	observed_value
[2H]C([2H])([2H])Oc1cc(C2CCNCC2)c(C)cc1Nc1ncc(Cl)c(Nc2ccccc2S(=O)(=O)C(C)C)n1	%	60

====

System: NCI-H2228
Test: Growth inhibition of human NCI-H2228 cells
Type: functional, cell-based
Documented IC50 across a set of compounds

compound	target_or_system	unit_symbol	IC50
[2H]C([2H])([2H])C([2H])([2H])Oc1cc(C2CCNCC2)c(C)cc1Nc1ncc(Cl)c(Nc2ccccc2S(=O)(=O)C(C)C)n1	NCI-H2228	nM	45.5
[2H]c1c(C)c(C2CCNCC2)cc(OC(C)C)c1Nc1ncc(Cl)c(Nc2ccccc2S(=O)(=O)C(C)C)n1	NCI-H2228	nM	98.5
[2H]C([2H])([2H])Oc1cc(C2CCNCC2)c(C)cc1Nc1ncc(Cl)c(Nc2ccccc2S(=O)(=O)C(C)C)n1	NCI-H2228	nM	41.3
Cc1cc(Nc2ncc(Cl)c(Nc3ccccc3S(=O)(=O)C(C)C)n2)c(OC(C)C)cc1C1CCNCC1 [CERITINIB]	NCI-H2228	nM	97
[2H]C([2H])([2H])C([2H])(Oc1cc(C2CCNCC2)c(C)cc1Nc1ncc(Cl)c(Nc2ccccc2S(=O)(=O)C(C)C)n1)C([2H])([2H])[2H]	NCI-H2228	nM	111
[2H]c1ccc(Nc2nc(Nc3cc(C)c(C4CCNCC4)cc3OC(C)C)ncc2Cl)c(S(=O)(=O)C(C)C)c1	NCI-H2228	nM	97
